species: Bos taurus; assay: Displacement of [3H]colchicine from bovine tubulin at 5 uM
Parameter Activity: see the listing below.
// return numeric value only (unit: %, not printed)

# annotated cases, reported Activity shown
COc1ccc2oc(C(=O)c3cc(OC)c(OC)c(OC)c3)c(C)c2c1	65
COc1cc(C(=O)c2cc3c(OC)cccc3o2)cc(OC)c1OC	76

Turning now to a further record.
Lab note: COc1ccc2c(C)c(C(=O)c3cc(OC)c(OC)c(OC)c3)oc2c1 gave Activity of 97

----------
test: Inhibition of bovine tubulin polymerization; set-up: species or system Bos taurus
assay_readout: IC50 (nM)
A number alone suffices; assume nM.

Consider the reported IC50 for these molecules:
COc1ccc2c(C)c(C(=O)c3cc(OC)c(OC)c(OC)c3)oc2c1	550
COc1cc(C(=O)c2cc3c(OC)cccc3o2)cc(OC)c1OC	1100

# evaluate next
For reference, reported IC50 for COc1cc(C(=O)c2oc3ccc(O)cc3c2C)cc(OC)c1OC stands at 1100

----------
experiment: Inhibition of bovine tubulin polymerization; parameters: species or system Bos taurus
pIC50: −log10 of the molar value.
The label depends only on pIC50: Fulfilled if it is at least 6, Not fulfilled if it is smaller.

Decide: is the reported value of pIC50 for CCOc1ccc2c(C)c(C(=O)c3cc(OC)c(OC)c(OC)c3)oc2c1 equal to or greater than 6? Fulfilled

Could you please find out whether COc1cc(C(=O)c2oc3cc(F)ccc3c2C)cc(OC)c1OC has pIC50 that meets 6 or exceeds it? Not fulfilled

Could you verify whether the entry COc1cc(C(=O)c2oc3cccc(OC)c3c2C)cc(OC)c1OC shows pIC50 of no less than 6? Not fulfilled

pIC50 >= 6 for COc1cc(C(=O)c2oc3cccc(O)c3c2C)cc(OC)c1OC ? Fulfilled
